B1: C2CD2L (parent)
chain: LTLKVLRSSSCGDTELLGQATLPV

Variants of: B1
Assay: protein stability index of a GFP-peptide fusion (GPS, HEK-293T) (PSI 1-6); higher = more stable;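 note: lentivirally expressed fusions sorted by FACS into six bins by GFP to DsRed ratio, PSI derived from sequencing read proportions per bin multiplied by bin number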
Conditions: c terminus: a fixed tail appended
Below, each entry is listed alongside its reported protein stability index.
Lab note: jot down the number only; don't add units.

Request: Request the reported protein stability index associated with `L3A`
Response: 2.59

Request: If you can, please state the reported protein stability index value of `G18Q` .
Response: 1.78

Request: Which protein stability index value belongs to `S8D` ?
Response: 1.93

Request: Entry `S8E` has what protein stability index?
Response: 1.72

Request: What protein stability index value was documented for this variant, `Q19F` ?
Response: 3.05

Request: Requested field: protein stability index. Item: `L22Q`
Response: 1.28

Request: Endpoint output: protein stability index of `S9F` . Value?
Response: 2.54

Request: Param item = `C11I` ; retrieve measured protein stability index.
Response: 4.68

Request: Request the reported protein stability index associated with `V5P`
Response: 2.38

Request: What does the record list as protein stability index for `C11A` ?
Response: 1.55

Request: Could you tell me which protein stability index is on file for `T21F` ?
Response: 3.74

Request: Suppose we examine the variant `V5A` ; what protein stability index value has been reported?
Response: 2.3

Request: Name the recorded protein stability index for `L1Q` .
Response: 2.96

Request: # lookup: protein stability index of `R7T`
Response: 2.88

Request: For `T21H` , what is its reported protein stability index?
Response: 2.21

Request: Sample `G12S` — what was its protein stability index?
Response: 1.92

Request: Which value of protein stability index has been reported for `S10H` in the records?
Response: 3

Request: I have this variant here, `R7G` , and I need its recorded protein stability index.
Response: 1.37

Request: For the variant `V5K` , what protein stability index is on record?
Response: 2.17
